protocolNotes: pKa of the compound represented by formula (1)
Format: physicochemical
reportedEndpoint: pKa

Q: Need pKa, item CCC(O)C(C)C1OC1CC(C)(O)/C=C/C=C(\C)C1OC(=O)CC(O)CCC(C)(O)C(OC(=O)N2CCN(C3CCCCCC3)CC2)/C=C/C1C (stereo not shown)
Ans: ~7.9

====

protocolNotes: solubility of the compound represented by formula (1) in pH regulating solution, HPLC
Type: physicochemical
assayContext: aqueous with cosolvent or surfactant or cyclodextrin, thermodynamic from solid; pH 6.81; 50 mM citric acid pH regulator with sucrose and polyethylene glycol 600; 1 hour at 5° C.
reportedEndpoint: solubility at 1 h (µg/mL)
The figure you give is taken to be in µg/mL; do not add the unit.

Q: Need solubility at 1 h, item CCC(O)C(C)C1OC1CC(C)(O)/C=C/C=C(\C)C1OC(=O)CC(O)CCC(C)(O)C(OC(=O)N2CCN(C3CCCCCC3)CC2)/C=C/C1C (stereo not shown)
Ans: 2570
